Value source: patent US9944666B2

Biological target: Human ATX protein (Homo sapiens)
pIC50: −log10 of the molar value.
REPORTED_PROPERTY: pIC50

**Q:** Kindly state the measured pIC50 obtained for O=C(O)C1CC2CC(C(=O)O)CC(C1)N2Cc1ccc2c(C(F)(F)F)c(O[C@H]3CC[C@@H](C(F)(F)F)CC3)ccc2c1 (stereo partly drawn) [Example 282] with Human ATX protein (Homo sapiens).
**A:** ≥ 7.00

**Q:** Let us now turn to CCC(c1ccc2c(C(F)(F)F)c(O[C@H]3CC[C@@H](CC)CC3)ccc2c1)N1C2CCCC1CC(C(=O)O)C2 (relative stereo) [Example 179]
**A:** ≥ 7.00

**Q:** Let us now turn to CCC(c1ccc2c(C(F)F)c(O[C@H]3CC[C@@H](C)CC3)ccc2c1)N1C2CCCC1CC(C(=O)O)C2 (relative stereo) [Example 135]
**A:** ≥ 7.00

###

Target: UniProt Q13822
pIC50: −log10 of the molar value.
REPORTED_PROPERTY: pIC50

COMPOUND	pIC50
CCC(c1ccc2c(C(F)(F)F)c(O[C@H]3CC[C@@H](C(C)(F)F)CC3)ccc2c1)N1C2CCC1CC(C(=O)O)C2 (stereo partly drawn)	≥ 7.00
CC[C@H]1CC[C@@H](Oc2ccc3cc(CN4C5CCC4CC(C(=O)O)C5)ccc3c2Cl)CC1 (relative stereo)	≥ 7.00
O=C(O)C1CC2CCCC(C1)N2C(=O)c1ccc2c(Cl)c(O[C@H]3CC[C@@H](C(F)(F)F)CC3)ccc2c1 (stereo partly drawn)	≥ 6.60

**Q:** Kindly state the measured pIC50 obtained for CCC(c1ccc2c(Cl)c(O[C@H]3CC[C@@H](CC)CC3)ccc2c1)N1C2CCCC1CC(C(=O)O)C2 (stereo partly drawn) with UniProt Q13822.
**A:** ≥ 6.60

**Q:** Let us now turn to CC[C@H]1CC[C@@H](Oc2ccc3cc([C@H](C)N4C5CCCC4CC(C(=O)O)C5)ccc3c2C(F)(F)F)CC1 (single isomer, unassigned)
**A:** ≥ 7.00

**Q:** Let us now turn to COC(=O)C1CC2CCCC(C1)N2C(=O)c1ccc2c(C(F)(F)F)c(N[C@H]3CC[C@@H](C(F)(F)F)CC3)ccc2c1 (stereo partly drawn)
**A:** ≥ 7.00

###

pIC50: −log10 of the molar value.
# pIC50 measurements, system: Human ATX protein (Homo sapiens)

// known answers, use as guide
MOLECULE	TARGET_OR_SYSTEM	pIC50
CC(C)(C)[C@H]1CC[C@@H](Nc2ncc3cc(C(=O)N4C5CCC4CC(C(=O)O)C5)ccc3c2Cl)CC1 (stereo partly shown) [Example 272]	Human ATX protein (Homo sapiens)	≥ 6.60
CC(c1ccc2c(C(F)(F)F)c(O[C@H]3CC[C@@H](C(F)(F)F)CC3)ccc2c1)N1C2CCC1CC(C(=O)O)C2 (relative stereo) [Example 122]	Human ATX protein (Homo sapiens)	≥ 7.00
N#Cc1c(O[C@H]2CC[C@@H](C(F)(F)F)CC2)ccc2cc(C(=O)N3C4CCCC3CC(C(=O)O)C4)ccc12 (stereo partly shown) [Example 206]	Human ATX protein (Homo sapiens)	≥ 7.00
C[C@H]1CC[C@@H](Oc2ccc3cc(C(=O)N4C5CCCC4CC(C(=O)O)C5)ccc3c2C#N)CC1 (stereo partly shown) [Example 218]	Human ATX protein (Homo sapiens)	≥ 7.00
CC[C@H]1CC[C@@H](Oc2ccc3cc(CN4C5CCCC4CC(C(=O)O)C5)ccc3c2C#N)CC1 (stereo partly shown) [Example 199]	Human ATX protein (Homo sapiens)	≥ 7.00

**Q:** Give its pIC50 value. Item: CC(c1ccc2c(C(F)(F)F)c(O[C@H]3CC[C@@H](C)CC3)ccc2c1)N1C2CCC1CC(C(=O)O)C2 (single isomer, unassigned; enantiomer 2) [Example 131]
**A:** ≥ 7.00

**Q:** Let us now turn to CC(c1ccc2c(C(F)F)c(O[C@H]3CC[C@@H](C)CC3)ccc2c1)N1C2CCCC1CC(C(=O)O)C2 (relative stereo) [Example 132]
**A:** ≥ 7.00

**Q:** Let us now turn to CC[C@H]1CC[C@@H](Oc2ccc3cc(C(=O)N4C5CCCC4CC(C(=O)O)C5)ccc3c2Cl)CC1 (stereo partly shown) [Example 227]
**A:** ≥ 7.00

**Q:** Let us now turn to CCC(c1ccc2c(C(F)(F)F)c(O[C@H]3CC[C@@H](CC)CC3)ccc2c1)N1C2CCC1CC(C(=O)O)C2 (relative stereo) [Example 180]
**A:** ≥ 7.00

**Q:** Let us now turn to O=C(O)C1CC2CCCC(C1)N2Cc1ccc2c(C(F)F)c(O[C@H]3CC[C@@H](C(F)(F)F)CC3)ccc2c1 (stereo partly shown) [Example 100]
**A:** ≥ 7.00

**Q:** Let us now turn to CC[C@H]1CC[C@@H](Oc2ccc3cc(C(C)N4C5CCC4CC(C(=O)O)C5)ccc3c2Cl)CC1 (relative stereo) [Example 184]
**A:** ≥ 7.00

**Q:** Let us now turn to CCC(c1ccc2c(Cl)c(O[C@H]3CC[C@@H](C(F)(F)F)CC3)ccc2c1)N1C2CCC1CC(C(=O)O)C2 (stereo partly shown) [Example 202]
**A:** ≥ 7.00

**Q:** Let us now turn to C[C@H]1CC[C@@H](Oc2ccc3cc(CN4C5CC(O)CC4CC(C(=O)O)C5)ccc3c2C(F)(F)F)CC1 (relative stereo) [Example 129]
**A:** ≥ 6.30
